meta.source: the supplement of paper PMC10567573

B1: FAM46D (parent)
chain: LELKFVSSLRRQFEFSVDSFQIVL

# Variants of: B1
# assay.info: protein stability index of a GFP-peptide fusion (GPS, HEK-293T) (PSI 1-6); higher = more stable;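 also: lentivirally expressed fusions sorted by FACS into six bins by GFP to DsRed ratio, PSI derived from sequencing read proportions per bin multiplied by bin number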
# measurement.context: c terminus: a fixed tail appended
Criterion: protein stability index meeting or surpassing 3. Met: t. Not met: f.

Hi, just wondering whether "V17L" shows protein stability index of 3 or higher.
t

protein stability index >= 3 for "L9S" ?
t

Does "F13Q" have a reported protein stability index of at least 3?
f

Has "L9I" a recorded protein stability index greater than or equal to 3?
f

Quick check: does "K4L" have protein stability index greater than or equal to 3?
t

Hi, just wondering whether "S19L" shows protein stability index of 3 or higher.
f

Decide: is the reported value of protein stability index for "R10I" equal to or greater than 3?
t

Would you say "L3K" shows protein stability index at minimum 3?
t

Quick check, protein stability index >= 3? "Q21H"
f

Reported protein stability index at or above 3? "Q12W"
t

Could you please find out whether "F20R" has protein stability index that meets 3 or exceeds it?
f

Hi, just wondering whether "S19H" shows protein stability index of 3 or higher.
t

Please check the record "R10N" and state if its protein stability index is at or above 3.
f

Does protein stability index meet or surpass 3 for "L3Q" ?
f

# bool: protein stability index of "E2K" >= 3
t

Please check the record "F15S" and state if its protein stability index is at or above 3.
t

Form field: protein stability index at least 3? Entry: "Q12V"
t

Is protein stability index for "F13W" at or above 3?
t

Textbook exercise: given the entry "L1D" , state whether its protein stability index is greater than or equal to 3.
f

API: above_or_equal(metric=protein stability index, cutoff=3) for item "L24R"
f

Threshold query (protein stability index >= 3) on "L24C"
t

Kindly determine if protein stability index recorded for "L24W" is above or exactly 3.
t

Dear colleague, could you confirm whether "V17S" has protein stability index at or above 3?
f

Determine whether this variant has protein stability index no lower than 3: "E2L"
f

Check the entry "Q12D" : does protein stability index equal or exceed 3?
f

Hi team, for "E14M" , is the recorded protein stability index at or above 3?
f

Determine whether this variant has protein stability index no lower than 3: "L1P"
f

Check this variant for protein stability index at or above 3: "E2G"
f

Textbook exercise: given the entry "L24K" , state whether its protein stability index is greater than or equal to 3.
f

Confirm if protein stability index reported for the variant "S8R" is 3 or above.
f

Given "F13L" , state whether its protein stability index is at least 3.
t

Please check the record "L24S" and state if its protein stability index is at or above 3.
t

Is reported protein stability index greater than or equal to 3 here: "S19W"
t

Hello, I need to know if "S19P" has measured protein stability index not below 3. Thanks!
f

Does protein stability index meet or surpass 3 for "L1E" ?
f

Record "S8P" ; criterion: protein stability index no lower than 3. Met?
f

Decide: protein stability index of "L24Y" >= 3?
f

Determine whether measured protein stability index meets or exceeds 3 for "Q21P"
f

Say whether "S19Y" shows protein stability index of 3 or more.
f

Does the variant "E2C" have recorded protein stability index that is 3 or more?
f

Please check the record "K4A" and state if its protein stability index is at or above 3.
f

Answer whether protein stability index of "K4G" is greater than or equal to 3.
f

# check: protein stability index of "F20M" is greater than or equal to 3
f

Hello, I need to know if "S8A" has measured protein stability index not below 3. Thanks!
f

Can "F15L" be said to have protein stability index at or above 3?
t

Is protein stability index at least 3? Consider "E2A"
f

Check this variant for protein stability index at or above 3: "V23I"
f

Determine whether this variant has protein stability index no lower than 3: "I22R"
f

Does the reported protein stability index for "V23Y" fall at or above the 3 mark?
t

Is protein stability index for "Q21Y" at or above 3?
f

Confirm if protein stability index reported for the variant "V6H" is 3 or above.
f

Dear colleague, could you confirm whether "S16Y" has protein stability index at or above 3?
f

Hi, just wondering whether "F15H" shows protein stability index of 3 or higher.
t

Could you tell me if the measured protein stability index of "Q21E" reaches 3 or more?
f

Determine whether this variant has protein stability index no lower than 3: "R10S"
t

Decide: is the reported value of protein stability index for "L1T" equal to or greater than 3?
f

Record "V6R" ; criterion: protein stability index no lower than 3. Met?
t

Does protein stability index meet or surpass 3 for "S19C" ?
f

Decide: is the reported value of protein stability index for "L3G" equal to or greater than 3?
f

Say whether "F5E" shows protein stability index of 3 or more.
f

Could you verify whether the entry "D18K" shows protein stability index of no less than 3?
t

Say whether "Q21I" shows protein stability index of 3 or more.
t

Record "L24D" ; criterion: protein stability index no lower than 3. Met?
f

Given "S16E" , state whether its protein stability index is at least 3.
f

Exam item: decide whether the reported protein stability index for "L3C" is at least 3.
f

// inclusive: protein stability index at least 3? input: "Q21T"
f

Is the recorded value of protein stability index equal to or greater than 3 for this variant? "Q12E"
f

# check: protein stability index of "F13C" is greater than or equal to 3
t

Would you say "L1W" shows protein stability index at minimum 3?
f

Is protein stability index at least 3? Consider "S16A"
t

Could you please find out whether "V17K" has protein stability index that meets 3 or exceeds it?
f

Determine whether measured protein stability index meets or exceeds 3 for "L3P"
f

Is protein stability index at least 3? Consider "F20I"
t

Could you tell me if the measured protein stability index of "F13V" reaches 3 or more?
t

// inclusive: protein stability index at least 3? input: "F20S"
f

Entry "D18C" : is its protein stability index no less than 3?
f

Does the variant "F20L" have recorded protein stability index that is 3 or more?
f

Entry "E14R" : is its protein stability index no less than 3?
f

# check: protein stability index of "L3E" is greater than or equal to 3
f

Does "S8G" have a reported protein stability index of at least 3?
f

Tell me whether protein stability index is at least 3 here: "S19R"
f

Please check the record "S8M" and state if its protein stability index is at or above 3.
t
